# System name: Human EphA2 (ephrin receptor A2) on cells (human, UniProt P29317 25-976)
# Sequence (P29317 25-976): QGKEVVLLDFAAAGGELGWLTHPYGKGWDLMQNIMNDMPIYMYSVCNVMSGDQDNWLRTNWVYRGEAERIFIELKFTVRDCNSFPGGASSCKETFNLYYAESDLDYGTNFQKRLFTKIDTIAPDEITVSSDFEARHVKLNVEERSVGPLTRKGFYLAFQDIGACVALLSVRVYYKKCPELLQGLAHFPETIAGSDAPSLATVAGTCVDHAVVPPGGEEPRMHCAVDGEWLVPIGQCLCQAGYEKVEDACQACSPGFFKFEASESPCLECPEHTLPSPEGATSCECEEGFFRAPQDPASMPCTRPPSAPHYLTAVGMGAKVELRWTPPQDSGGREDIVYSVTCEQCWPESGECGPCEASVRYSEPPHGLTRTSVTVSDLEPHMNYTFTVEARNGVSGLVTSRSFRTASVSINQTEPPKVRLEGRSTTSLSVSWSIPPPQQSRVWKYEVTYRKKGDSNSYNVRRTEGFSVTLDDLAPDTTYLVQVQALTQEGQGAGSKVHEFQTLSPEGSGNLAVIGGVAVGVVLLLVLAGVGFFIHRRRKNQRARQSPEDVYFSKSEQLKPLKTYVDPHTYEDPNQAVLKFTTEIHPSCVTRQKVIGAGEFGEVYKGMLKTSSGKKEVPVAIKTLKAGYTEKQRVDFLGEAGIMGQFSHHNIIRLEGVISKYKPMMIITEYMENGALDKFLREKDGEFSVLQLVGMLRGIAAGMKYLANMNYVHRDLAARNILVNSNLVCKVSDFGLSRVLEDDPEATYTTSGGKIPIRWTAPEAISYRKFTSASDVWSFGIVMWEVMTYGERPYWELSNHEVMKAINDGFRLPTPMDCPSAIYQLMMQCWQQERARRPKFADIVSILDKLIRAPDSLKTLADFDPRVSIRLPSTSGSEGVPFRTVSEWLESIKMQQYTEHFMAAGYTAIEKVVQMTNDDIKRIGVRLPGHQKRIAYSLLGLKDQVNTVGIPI
# Method description: cell-based or functional assay
ADCC - EC50 (nM), Trial 1, A549 strictly less than 2 nM = true (1). Otherwise false (0).

Below are worked cases with known answers.
Query :: Please determine if AB-010667 (antibody, V domains shown) VH: QVQLQQWGAGLLKPSETLSLTCAVYGGSFSDYYWSWIRQPPGKGLEWIGEINHRGSINYNNYNPSLKSRVTISVDTSKNQFSLKLSSVTAADTAVYYCAKPLRPHCTNGVCYSGDAFDIWGQGTMVTVAS VL: SYVLTQPPSVSVAPGQTARITCGGNNIGYKNVHWYQQKPGQAPVLVVYDDSDRPSGIPEQFSGSNSGNTATLTISRVEAGDEADYYCQVWDHSSDHVVFGGGTKLTVL is below 2 nM in terms of ADCC - EC50 (nM), Trial 1, A549.
Result :: true (1)

Query :: Please determine if AB-010701 (antibody, V domains shown) VH: QVQLQQWGAGLLKPSETLSLTCAVYGGSFSGYYWSWIRQPPGKGLEWIGEINHRGSINYNNYNPSLKSRVTISVDTSKNQFSLKLSSVTAADTAVYYCAKPLRPHCTNGVCYSGDAFDIWGQGTMVTVAS VL: SYVLTQPPSVSVAPGQTARITCGGNNIGSKNVHWYQQKPGQAPVLVVYDDSDRPSGIPERFSGSNSGNTATLTISRVEAGDEADYYCQVWDSESDHVVFGGGTKLTVL is below 2 nM in terms of ADCC - EC50 (nM), Trial 1, A549.
Result :: false (0)

Query :: Please determine if AB-010698 (antibody, V domains shown) VH: QVQLQQWGAGLLKPSETLSLTCAVYGGSFSGYYWSWIRQPPGKGLEWIGEINHRGSINYNNYNPSLKSRVTISVDTSKNQFSLKLSSVTAADTAVYYCAKPLRPHCINGVCYSGDAFDIWGQGTMVTVAS VL: SYVLTQPPSVSVAPGQTARITCGGNNIGSKNVHWYQQKPGQAPVLVVYDDSDRPSGIPERFSGSNSGNTATLTISRVEAGDEADYYCQVWDHSSDHVVFGGGTKLTVL is below 2 nM in terms of ADCC - EC50 (nM), Trial 1, A549.
Result :: true (1)

Query :: Please determine if AB-010675 (antibody, V domains shown) VH: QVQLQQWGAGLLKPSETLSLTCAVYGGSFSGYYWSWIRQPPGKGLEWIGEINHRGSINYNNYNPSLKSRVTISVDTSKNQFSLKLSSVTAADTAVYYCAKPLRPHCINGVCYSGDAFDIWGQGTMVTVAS VL: SYVLTQPPSVSVAPGQTARITCRGNNIGSKNVHWYQQKPGQAPVLVVYDDSDRPSGIPEQFSGSNSGNTATLTISRVEAGDEADYYCQVWDSSSDHVVFGGGTKLTVL is below 2 nM in terms of ADCC - EC50 (nM), Trial 1, A549.
Result :: true (1)

Query :: Please determine if AB-010685 (antibody, V domains shown) VH: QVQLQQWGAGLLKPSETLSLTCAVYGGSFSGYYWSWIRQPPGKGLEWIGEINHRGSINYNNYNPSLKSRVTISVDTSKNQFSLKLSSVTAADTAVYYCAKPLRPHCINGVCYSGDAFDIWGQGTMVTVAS VL: SYVLTQPPSVSVAPGQTARITCGGNNIGYKNVHWYQQKPGQAPVLVVYDDSDRPSGIPEQFSGSNSGNTATLTISRVEAGDEADYYCQVWDHSSDHVVFGGGTKLTVL is below 2 nM in terms of ADCC - EC50 (nM), Trial 1, A549.
Result :: true (1)

Query :: Please determine if AB-010689 (antibody, V domains shown) VH: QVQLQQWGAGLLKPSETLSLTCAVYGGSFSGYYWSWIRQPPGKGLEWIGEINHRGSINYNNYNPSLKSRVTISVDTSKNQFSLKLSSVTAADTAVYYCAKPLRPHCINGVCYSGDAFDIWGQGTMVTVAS VL: SYVLTQPPSVSVAPGQTARITCRGNNIGSKNVHWYQQKPGQAPVLVVYDDSDRPSGIPERFSGSNSGNTATLTISRVEAGDEADYYCQVWDSSSDHVVFGGGTKLTVL is below 2 nM in terms of ADCC - EC50 (nM), Trial 1, A549.
Result :: false (0)

More entries:
Query :: Please determine if AB-010677 (antibody, V domains shown) VH: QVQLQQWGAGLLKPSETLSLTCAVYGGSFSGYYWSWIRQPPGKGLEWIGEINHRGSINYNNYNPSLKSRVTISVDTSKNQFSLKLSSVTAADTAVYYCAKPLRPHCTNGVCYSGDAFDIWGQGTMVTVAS VL: SYVLTQPPSVSVAPGQTARITCRGNNIGSMNVHWYQQKPGQAPVLVVYDDSDRPSGIPEQFSGSNSGNTATLTISRVEAGDEADYYCQVWDSSSDHVVFGGGTKLTVL is below 2 nM in terms of ADCC - EC50 (nM), Trial 1, A549.
Result :: true (1)

Query :: Please determine if AB-010686 (antibody, V domains shown) VH: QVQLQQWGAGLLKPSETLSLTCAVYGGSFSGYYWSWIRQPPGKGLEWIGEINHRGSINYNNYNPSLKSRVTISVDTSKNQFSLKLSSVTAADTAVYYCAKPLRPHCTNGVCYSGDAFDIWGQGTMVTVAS VL: SYVLTQPPSVSVAPGQTARITCGGNNIGSKNVHWYQQKPGQAPVLVVYDDSDRPSGIPEQFSGSNSGNTATLTISRVEAGDEADYYCQVWDSRSDHVVFGGGTKLTVL is below 2 nM in terms of ADCC - EC50 (nM), Trial 1, A549.
Result :: false (0)
